molecular target: human Claudin-6 (CLDN6) (human) (UniProt P56747); test: FACS, 0.3 ug Ab, ARK2 cells (2nd Ab only 1351.21)
For each entry below, report its FACS fluorescence value.
One number for each entry.

- AB1-5 (antibody, V domains shown, humanized) VH: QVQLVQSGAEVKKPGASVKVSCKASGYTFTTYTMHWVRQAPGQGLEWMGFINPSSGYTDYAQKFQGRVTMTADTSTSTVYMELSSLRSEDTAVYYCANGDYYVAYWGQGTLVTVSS VL: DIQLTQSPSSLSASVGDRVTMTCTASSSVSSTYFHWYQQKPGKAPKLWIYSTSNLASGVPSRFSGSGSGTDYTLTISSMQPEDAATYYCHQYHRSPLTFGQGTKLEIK: 7490

Moving on to the next binder.
Query: FACS fluorescence; subject: AB3-5 (antibody, V domains shown, humanized) VH: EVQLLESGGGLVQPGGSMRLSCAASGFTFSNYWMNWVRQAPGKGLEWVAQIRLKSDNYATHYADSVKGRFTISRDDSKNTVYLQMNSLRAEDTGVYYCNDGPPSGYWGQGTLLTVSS VL: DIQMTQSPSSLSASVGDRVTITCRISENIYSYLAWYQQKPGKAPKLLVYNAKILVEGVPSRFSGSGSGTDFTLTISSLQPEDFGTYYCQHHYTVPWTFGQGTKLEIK
1280
